Target: UniProt:O14842
Sequence (O14842 whole entry): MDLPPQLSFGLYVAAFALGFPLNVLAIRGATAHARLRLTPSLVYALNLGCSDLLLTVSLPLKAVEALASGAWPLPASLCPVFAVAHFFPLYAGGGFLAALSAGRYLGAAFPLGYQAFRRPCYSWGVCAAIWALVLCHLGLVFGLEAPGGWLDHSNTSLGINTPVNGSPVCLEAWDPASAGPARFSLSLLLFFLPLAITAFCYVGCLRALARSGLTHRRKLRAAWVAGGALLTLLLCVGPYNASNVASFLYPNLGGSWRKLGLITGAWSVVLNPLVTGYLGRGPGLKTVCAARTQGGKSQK
Test: Agonist activity at human GPR40 expressed in HEK293 cells assessed as [3H]IP3 production in presence of 0.4% serum albumin
Format: functional, cell-based
EC50 for assorted molecules
Quick reminder: number only, in nM, skip the unit.

Consider the reported EC50 for these molecules:
# molecule, property-label, reported-measurement
records = [
    ("CC#CC(CC(=O)O)c1ccc(Oc2ccc(C(F)(F)F)cc2OC(F)F)cc1F (racemic)", "EC50", 349),
    ("CC#CC(CC(=O)O)c1ccc(Oc2ccc(C(F)(F)F)cc2OC(F)F)cc1 (racemic)", "EC50", 455),
]

As a next step, examine the molecule that follows.
[Q] Consider the molecule shown here: CC#CC(c1ccc(Oc2ccc(C(F)(F)F)cc2OC(F)F)cc1)C1OC(=O)NC1=O (racemic) What is its recorded EC50?
[A] 249
